- System: time-mated Wistar rats
- method: in vivo maternal and prenatal developmental toxicity screening study (OECD 414 principles)
- protocol conditions: rat, gavage GD 6–19, 200 mg/kg

>  <molecule>
CC(c1nc(-c2ccc(C#N)cc2)cs1)C(O)(Cn1cncn1)c1ccc(F)cc1 (stereo not shown)

>  <Early resorption (%)>
2.9

$$$$
>  <molecule>
CC1CC(C)OC(Cn2cncn2)(c2ccc(Oc3ccc(Cl)cc3)cc2Cl)O1 (stereo not shown)

>  <Early resorption (%)>
4.0

$$$$
>  <molecule>
OC(c1cccnc1)c1c(-c2ccc(F)cc2F)csc1-c1ccc(F)cc1F (stereo not shown)

>  <Early resorption (%)>
21.9

$$$$
>  <molecule>
OC(c1cccnc1)c1c(-c2ccc(F)cc2F)noc1-c1ccc(Cl)cc1F (stereo not shown)

>  <Early resorption (%)>
5.9

$$$$

====

- Test system: time-mated Wistar rats
- method: in vivo maternal and prenatal developmental toxicity screening study (OECD 414 principles)
- protocol conditions: rat, gavage GD 6–19, 200 mg/kg

>  <compound>
OC(c1cccnc1)c1c(-c2ccc(F)cc2F)csc1-c1ccc(F)cc1F (stereo not shown)

>  <Total number of fetuses>
74

$$$$
>  <compound>
OC(c1cccnc1)c1c(-c2ccc(F)cc2F)noc1-c1ccc(Cl)cc1F (stereo not shown)

>  <Total number of fetuses>
99

$$$$
>  <compound>
CC1CC(C)OC(Cn2cncn2)(c2ccc(Oc3ccc(Cl)cc3)cc2Cl)O1 (stereo not shown)

>  <Total number of fetuses>
99

$$$$
>  <compound>
CC(c1nc(-c2ccc(C#N)cc2)cs1)C(O)(Cn1cncn1)c1ccc(F)cc1 (stereo not shown)

>  <Total number of fetuses>
109

$$$$

====

- System: time-mated Wistar rats
- method: in vivo maternal and prenatal developmental toxicity screening study (OECD 414 principles)
- protocol conditions: rat, gavage GD 6–19, 600 mg/kg

>  <compound>
OC(c1cccnc1)c1c(-c2ccc(F)cc2F)noc1-c1ccc(Cl)cc1F (stereo not shown)

>  <scale unit>
%

>  <Early resorption (%)>
14.1

$$$$
>  <compound>
OC(c1cccnc1)c1c(-c2ccc(F)cc2F)csc1-c1ccc(F)cc1F (stereo not shown)

>  <scale unit>
%

>  <Early resorption (%)>
100

$$$$
>  <compound>
CC1CC(C)OC(Cn2cncn2)(c2ccc(Oc3ccc(Cl)cc3)cc2Cl)O1 (stereo not shown)

>  <scale unit>
%

>  <Early resorption (%)>
6.0

$$$$
>  <compound>
CC(c1nc(-c2ccc(C#N)cc2)cs1)C(O)(Cn1cncn1)c1ccc(F)cc1 (stereo not shown)

>  <scale unit>
%

>  <Early resorption (%)>
7.7

$$$$

====

The following molecules are shown together with reported Papp at 30 min, 50 μM values.
- method: in vitro BeWo transport model (placental transfer)
- protocol conditions: human

>  <molecule>
OC(c1cccnc1)c1c(-c2ccc(F)cc2F)csc1-c1ccc(F)cc1F (stereo not shown)

>  <Papp at 30 min, 50 μM (×10⁻⁶ cm/s)>
3

$$$$
>  <molecule>
OC(c1cccnc1)c1c(-c2ccc(F)cc2F)noc1-c1ccc(Cl)cc1F (stereo not shown)

>  <Papp at 30 min, 50 μM (×10⁻⁶ cm/s)>
11.5

$$$$
>  <molecule>
Cc1cc(=O)n(-c2ccccc2)n1C [Antipyrine, antipyrine, reference compound]

>  <Papp at 30 min, 50 μM (×10⁻⁶ cm/s)>
38.9

$$$$
>  <molecule>
CC1CC(C)OC(Cn2cncn2)(c2ccc(Oc3ccc(Cl)cc3)cc2Cl)O1 (stereo not shown)

>  <Papp at 30 min, 50 μM (×10⁻⁶ cm/s)>
7.9

$$$$

Where do these numbers come from? They come from paper PMC4830886.
